Where these numbers come from: PubChem BioAssay (NCI)

The compounds listed here are annotated with their TGI.
# System: EKVX NSCLC
# Test Details: NCI tumour cell line growth inhibition, 48 h

Worked examples, 8 compounds total:
{"Compound": "CN1CCN(c2cc(C(=O)Nc3cc4cc(-c5cnn(C)c5)ccc4cn3)ccn2)CC1", "TGI": "14.3 µM"}
{"Compound": "CCOC(=O)Cc1csc2[n+]1C(=O)/C(=C\\c1cccc(Cl)c1Cl)S2", "TGI": "50.7 µM"}
{"Compound": "C[C@@H](CN1CC(=O)NC(=O)C1)N1CC(=O)NC(=O)C1", "TGI": "546 µM"}
{"Compound": "CC(=O)NNc1nc(C)c(C(/C=C/c2ccc([N+](=O)[O-])cc2)=N/NC(N)=S)s1", "TGI": "> 100 µM"}
{"Compound": "Clc1ccc(C2=Nn3c(nnc3-c3cc(Cl)cc(Cl)c3Cl)SC2)cc1", "TGI": "> 100 µM"}
{"Compound": "Nc1ncc(Cl)c(NCC2(CO)CC(CCc3ccccc3)C2)n1 (stereo not given)", "TGI": "> 100 µM"}
{"Compound": "CCN(CC)CCNC(=O)c1ccc(I)cc1", "TGI": "> 100 µM"}
{"Compound": "CS(=O)(=O)c1c(N)c2nc(Cl)cn2c2nc3ccccc3nc12", "TGI": "> 100 µM"}

So what TGI did COc1ccc(/C=C2\CCC(C)/C(=C\c3ccc(OC)c(OC)c3)C2=O)cc1OC (stereo not given) get with EKVX NSCLC?
10.2 µM

Also need Cc1cc(O)c(C2=NN(c3ccc(S(N)(=O)=O)cc3)C(c3ccc(N(C)C)cc3)C2)c(C)c1Cl (stereo not given) , thanks.
36.1 µM

Also need CCOC(=O)Cc1csc2[n+]1C(=O)/C(=C/c1cccc(OC)c1O)S2 , thanks.
> 100 µM

Also need CCN(CC)CCCn1c(=O)c2ccccc2n2c3c(=O)n(C)c(=O)n(C)c3nc12 , thanks.
36.6 µM

Also need N#CC(C#N)=C(N)/C(C#N)=C/c1ccc2ccccc2n1 , thanks.
> 100 µM

Also need Cc1cc(S(=O)(=O)/N=C(\[N-]S(=O)(=O)c2ccc(Cl)cc2)[n+]2ccc(N(C)C)cc2)c(S)cc1Cl , thanks.
> 100 µM

Also need CC1(C)CC(=O)C2=C(C1)NC1=C(C(=O)CC(C)(C)C1)C2c1ccc([N+](=O)[O-])cc1 , thanks.
> 100 µM

Also need CC(=O)O[C@@H]1[C@@H](O)C2=C3[C@]4(C)[C@@H]1C(C)(C)C(=O)C[C@@H]4[C@]3(O)[C@H](OC(C)=O)[C@@]1(C[C@@H]1C)C2=O , thanks.
40.7 µM

Also need Cc1oc(N)c(S(=O)(=O)c2ccc(Cl)cc2)c1C , thanks.
> 100 µM

Also need O=c1c(O)cccc2cc(O)c(O)c(O)c12 , thanks.
> 100 µM

Also need Cc1ccc(NC(=O)C(=O)CC(=O)C2CCOC2=O)c(C)c1 (stereo not given) , thanks.
> 100 µM

Also need Cc1nc(-c2ccccc2)cc2c1c(=O)oc1ccccc12 , thanks.
> 100 µM
